Parameter: MTC. Scope: all listed entries.
Assay: Maximum tolerated concentration in vitro against murine HT-22 hippocampal cell cultures by LDH assay
Assay type: functional, Mus musculus, Hippocampus

| Sample Smiles | MTC (µM) |
| --- | --- |
| CC(C)Nc1c(O)cc2oc(-c3ccccc3)cc(=O)c2c1O | 100 |
| CCCNc1c(O)cc2oc(-c3ccccc3)cc(=O)c2c1O | 100 |
| CC(C)CCNc1c(O)cc2oc(-c3ccccc3)cc(=O)c2c1O | 100 |
| CC(C)CCNc1c(O)cc(O)c2c(=O)cc(-c3ccccc3)oc12 | 10 |
| C=CCNc1c(O)cc(O)c2c(=O)cc(-c3ccccc3)oc12 | 10 |
| CCCNc1c(O)cc(O)c2c(=O)cc(-c3ccccc3)oc12 | 25 |
| CC(C)CNc1c(O)cc(O)c2c(=O)cc(-c3ccccc3)oc12 | 10 |
